The origin of these recorded values is paper PMC6009867.

experiment: Cytotoxicity assay (MTT), HGF cells; assay type: cell-based; settings: human, gingival fibroblasts (HGF), normal oral cells
API: label(entry) gives Fulfilled if the entry's CC50 at 48 h is strictly smaller than 70 µM; on equality or larger values it gives Not fulfilled.

Below are worked cases with known answers.
1) COc1ccc(C2=NN(c3ccc(S(N)(=O)=O)cc3)C(c3ccc(O)cc3)C2)cc1 (centres unmarked) : Fulfilled
2) NS(=O)(=O)c1ccc(N2N=C(c3ccc(Br)cc3)CC2c2ccc(O)cc2)cc1 (centres unmarked) : Fulfilled
3) NS(=O)(=O)c1ccc(N2N=C(c3ccccc3)CC2c2ccc(O)cc2)cc1 (centres unmarked) : Not fulfilled
4) NS(=O)(=O)c1ccc(N2N=C(c3ccc(F)cc3)CC2c2ccc(O)cc2)cc1 (centres unmarked) : Fulfilled

Exam item: Please check: CC50 at 48 h for NS(=O)(=O)c1ccc(N2N=C(c3cccs3)CC2c2ccc(O)cc2)cc1 (centres unmarked) , strictly under 70 µM or not?
Marked response: Not fulfilled

Exam item: Please check: CC50 at 48 h for O=c1[nH]cc(F)c(=O)[nH]1 [Compound 5-FU, 5-Fluorouracil, reference compound] , strictly under 70 µM or not?
Marked response: Not fulfilled

Exam item: Please check: CC50 at 48 h for NS(=O)(=O)c1ccc(N2N=C(c3ccc(Cl)cc3)CC2c2ccc(O)cc2)cc1 (centres unmarked) , strictly under 70 µM or not?
Marked response: Fulfilled

Exam item: Please check: CC50 at 48 h for Cc1ccc(C2=NN(c3ccc(S(N)(=O)=O)cc3)C(c3ccc(O)cc3)C2)cc1 (centres unmarked) , strictly under 70 µM or not?
Marked response: Fulfilled

====

Reported CC50 at 48 h by item:
test: Cytotoxicity assay (MTT), HPC cells; assay type: cell-based; settings: human, pulp cells (HPC), normal oral cells
Please state the figure in µM; there is no need to write the unit.

# annotated cases, reported CC50 at 48 h shown
1. NS(=O)(=O)c1ccc(N2N=C(c3ccccc3)CC2c2ccc(O)cc2)cc1 (centres unmarked) : 88.3
2. Cc1ccc(C2=NN(c3ccc(S(N)(=O)=O)cc3)C(c3ccc(O)cc3)C2)cc1 (centres unmarked) : 49.7
3. NS(=O)(=O)c1ccc(N2N=C(c3ccc(Cl)cc3)CC2c2ccc(O)cc2)cc1 (centres unmarked) : 50.7

Exam item: I am curious: what CC50 at 48 h value has been reported for NS(=O)(=O)c1ccc(N2N=C(c3ccc(F)cc3)CC2c2ccc(O)cc2)cc1 (centres unmarked) ?
Marked response: 67.7

Exam item: I am curious: what CC50 at 48 h value has been reported for COc1ccc(C2=NN(c3ccc(S(N)(=O)=O)cc3)C(c3ccc(O)cc3)C2)cc1 (centres unmarked) ?
Marked response: 61

Exam item: I am curious: what CC50 at 48 h value has been reported for NS(=O)(=O)c1ccc(N2N=C(c3cccs3)CC2c2ccc(O)cc2)cc1 (centres unmarked) ?
Marked response: 87.3

Exam item: I am curious: what CC50 at 48 h value has been reported for NS(=O)(=O)c1ccc(N2N=C(c3ccc(Br)cc3)CC2c2ccc(O)cc2)cc1 (centres unmarked) ?
Marked response: 39.7

====

tested on: HSC-2 (human oral squamous cell carcinoma, tongue); experiment: Cytotoxicity assay (MTT), HSC-2 cells; type: cell-based; conditions: CC50 ratio to reference 5-FU, HSC-2
Reported times of potency versus 5-FU toward HSC-2 by item:
Response field accepts a number only; no unit should be typed.

1. NS(=O)(=O)c1ccc(N2N=C(c3ccc(Cl)cc3)CC2c2ccc(O)cc2)cc1 (stereo not shown) [Compound 12] : 1.2

Exam item: I am curious: what times of potency versus 5-FU toward HSC-2 value has been reported for Cc1ccc(C2=NN(c3ccc(S(N)(=O)=O)cc3)C(c3ccc(O)cc3)C2)cc1 (stereo not shown) [Compound 9] ?
Marked response: 1.4

Exam item: I am curious: what times of potency versus 5-FU toward HSC-2 value has been reported for NS(=O)(=O)c1ccc(N2N=C(c3ccc(Br)cc3)CC2c2ccc(O)cc2)cc1 (stereo not shown) [Compound 13] ?
Marked response: 1.2

Exam item: I am curious: what times of potency versus 5-FU toward HSC-2 value has been reported for NS(=O)(=O)c1ccc(N2N=C(c3ccc(F)cc3)CC2c2ccc(O)cc2)cc1 (stereo not shown) [Compound 11] ?
Marked response: 1.0

====

molecular target: hCA II (Homo sapiens, UniProt P00918); test: Carbonic anhydrase inhibition assay (esterase activity, 348 nm), hCA II; type: biochemical; conditions: in terms of IC50 values
PROPERTY MEASURED: times more potent than AZA toward hCA II
Response field accepts a number only; no unit should be typed.

1. NS(=O)(=O)c1ccc(N2N=C(c3ccc(Br)cc3)CC2c2ccc(O)cc2)cc1 (stereo not shown) : 42.9
2. NS(=O)(=O)c1ccc(N2N=C(c3ccc(Cl)cc3)CC2c2ccc(O)cc2)cc1 (stereo not shown) : 46.9
3. Cc1ccc(C2=NN(c3ccc(S(N)(=O)=O)cc3)C(c3ccc(O)cc3)C2)cc1 (stereo not shown) : 35.5

Next item in the queue.
Exam item: I am curious: what times more potent than AZA toward hCA II value has been reported for NS(=O)(=O)c1ccc(N2N=C(c3ccccc3)CC2c2ccc(O)cc2)cc1 (stereo not shown) ?
Marked response: 40.3

====

test system: HSC-2 (human oral squamous cell carcinoma, tongue); assay: Cytotoxicity assay (MTT), HSC-2 cells; format: cell-based; settings: average CC50 of nonmalignant cells / CC50 toward HSC-2
Reported SI HSC-2 by item:
Response field accepts a number only; no unit should be typed.

# annotated cases, reported SI HSC-2 shown
1. NS(=O)(=O)c1ccc(N2N=C(c3ccc(Cl)cc3)CC2c2ccc(O)cc2)cc1 (centres unmarked) [Compound 12] : 1.1
2. NS(=O)(=O)c1ccc(N2N=C(c3cccs3)CC2c2ccc(O)cc2)cc1 (centres unmarked) [Compound 14] : 1.5
3. COc1ccc(C2=NN(c3ccc(S(N)(=O)=O)cc3)C(c3ccc(O)cc3)C2)cc1 (centres unmarked) [Compound 10] : 0.8
4. NS(=O)(=O)c1ccc(N2N=C(c3ccccc3)CC2c2ccc(O)cc2)cc1 (centres unmarked) [Compound 8] : 1.1
5. Cc1ccc(C2=NN(c3ccc(S(N)(=O)=O)cc3)C(c3ccc(O)cc3)C2)cc1 (centres unmarked) [Compound 9] : 1.3
6. NS(=O)(=O)c1ccc(N2N=C(c3ccc(F)cc3)CC2c2ccc(O)cc2)cc1 (centres unmarked) [Compound 11] : 1.3

Next item in the queue.
Exam item: I am curious: what SI HSC-2 value has been reported for NS(=O)(=O)c1ccc(N2N=C(c3ccc(Br)cc3)CC2c2ccc(O)cc2)cc1 (centres unmarked) [Compound 13] ?
Marked response: 0.9

====

Reported PSE (D/B^2) × 100 by item:
system: Human oral squamous cell carcinoma cells; experiment: Cytotoxicity assay (MTT), mean over four OSCC cell lines; format: cell-based; conditions: potency selectivity expression, expressed as a percentage
Response field accepts a number only; no unit should be typed.

# annotated cases, reported PSE (D/B^2) × 100 shown
1) NS(=O)(=O)c1ccc(N2N=C(c3ccc(Br)cc3)CC2c2ccc(O)cc2)cc1 (stereo not shown) [Compound 13] : 3.9
2) COc1ccc(C2=NN(c3ccc(S(N)(=O)=O)cc3)C(c3ccc(O)cc3)C2)cc1 (stereo not shown) [Compound 10] : 2.2

Next item in the queue.
Exam item: I am curious: what PSE (D/B^2) × 100 value has been reported for NS(=O)(=O)c1ccc(N2N=C(c3ccc(Cl)cc3)CC2c2ccc(O)cc2)cc1 (stereo not shown) [Compound 12] ?
Marked response: 4.1

====

target: hCA I (Homo sapiens); assay: Carbonic anhydrase inhibition assay (esterase activity, 348 nm), hCA I; format: biochemical; details: in terms of IC50 values
Sequence (P00915 whole entry): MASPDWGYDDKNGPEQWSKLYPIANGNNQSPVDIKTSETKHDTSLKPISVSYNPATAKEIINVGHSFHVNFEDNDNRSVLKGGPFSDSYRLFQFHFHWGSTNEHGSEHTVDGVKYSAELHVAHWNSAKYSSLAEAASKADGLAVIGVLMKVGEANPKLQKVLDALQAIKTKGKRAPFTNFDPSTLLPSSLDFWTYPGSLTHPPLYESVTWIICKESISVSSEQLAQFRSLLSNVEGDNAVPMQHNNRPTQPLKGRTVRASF
Classify as follows. Reported times more potent than AZA toward hCA I greater than or equal to 40: 1 (yes). Reported times more potent than AZA toward hCA I below: 0 (no).

1) NS(=O)(=O)c1ccc(N2N=C(c3ccc(Cl)cc3)CC2c2ccc(O)cc2)cc1 (stereo not shown) : 0 (no)
2) NS(=O)(=O)c1ccc(N2N=C(c3ccc(F)cc3)CC2c2ccc(O)cc2)cc1 (stereo not shown) : 0 (no)
3) NS(=O)(=O)c1ccc(N2N=C(c3cccs3)CC2c2ccc(O)cc2)cc1 (stereo not shown) : 0 (no)
4) Cc1ccc(C2=NN(c3ccc(S(N)(=O)=O)cc3)C(c3ccc(O)cc3)C2)cc1 (stereo not shown) : 0 (no)

Now for another entry.
Exam item: Threshold query (times more potent than AZA toward hCA I >= 40) on NS(=O)(=O)c1ccc(N2N=C(c3ccc(Br)cc3)CC2c2ccc(O)cc2)cc1 (stereo not shown)
Marked response: 1 (yes)

====

Reported CC50 at 48 h by item:
test: Cytotoxicity assay (MTT), mean over three normal oral cells; format: cell-based; details: human; mean of HGF, HPLF, HPC; read-out: (D) Mean CC50, human normal oral cells
Please state the figure in µM; there is no need to write the unit.

1. NS(=O)(=O)c1ccc(N2N=C(c3ccc(F)cc3)CC2c2ccc(O)cc2)cc1 (centres unmarked) [Compound 11] : 59.1
2. COc1ccc(C2=NN(c3ccc(S(N)(=O)=O)cc3)C(c3ccc(O)cc3)C2)cc1 (centres unmarked) [Compound 10] : 50.8
3. NS(=O)(=O)c1ccc(N2N=C(c3cccs3)CC2c2ccc(O)cc2)cc1 (centres unmarked) [Compound 14] : 82.9

Exam item: I am curious: what CC50 at 48 h value has been reported for NS(=O)(=O)c1ccc(N2N=C(c3ccc(Br)cc3)CC2c2ccc(O)cc2)cc1 (centres unmarked) [Compound 13] ?
Marked response: 34.7

Exam item: I am curious: what CC50 at 48 h value has been reported for NS(=O)(=O)c1ccc(N2N=C(c3ccccc3)CC2c2ccc(O)cc2)cc1 (centres unmarked) [Compound 8] ?
Marked response: 75.9

Exam item: I am curious: what CC50 at 48 h value has been reported for NS(=O)(=O)c1ccc(N2N=C(c3ccc(Cl)cc3)CC2c2ccc(O)cc2)cc1 (centres unmarked) [Compound 12] ?
Marked response: 44.3

Exam item: I am curious: what CC50 at 48 h value has been reported for Cc1ccc(C2=NN(c3ccc(S(N)(=O)=O)cc3)C(c3ccc(O)cc3)C2)cc1 (centres unmarked) [Compound 9] ?
Marked response: 44.2
